Reported values of Pre-emergence herbicidal activity, TRAZW (damage score 0-5) for individual entries
Test system: Triticum aestivium (TRZAW)
assay explanation: B1 Pre-emergence herbicidal activity
Assay type: in vivo
condition set: pre-emergence application, rate 1000 g/ha, evaluated after 13 days
Procedure: Seeds of a variety of test species were sown in standard soil in pots: Triticum aestivium (TRZAW), Avena fatua (AVEFA), Alopecurus myosuroides (ALOMY), Echinochloa crus-galli (ECHCG), Lolium perenne (LOLPE), Zea Mays (ZEAMX), Abutilon theophrasti (ABUTH), Amaranthus retroflexus (AMARE) and Setaria fabenr (SETFA). […] After 13 days, the test was evaluated (5=total damage to plant; 0=no damage to plant).

Solved cases (4 shown):
C/C=C/C(=O)Nc1ccc(-c2cncc(F)c2)nc1C(F)(F)F 1
CCCC(=O)Nc1ccc(-c2cncc(F)c2)nc1C(F)(F)F 0
CCOC(=O)CC(=O)Nc1ccc(-c2cncc(F)c2)nc1C(F)(F)F 0
O=C1CCCN1c1ccc(-c2cncc(F)c2)nc1C(F)(F)F 0

Here's the next entry for you.
Form: compound = O=C(c1ccccc1)N(Cc1cnc(Cl)s1)c1ccc(-c2cncc(F)c2)nc1C(F)(F)F ; Pre-emergence herbicidal activity, TRAZW (damage score 0-5) = 0

----------
Reported values of Pre-emergence herbicidal activity, SETFA (damage score 0-5) for individual entries
Test system: Setaria fabenr (SETFA)
assay explanation: B1 Pre-emergence herbicidal activity
Format: in vivo
condition set: pre-emergence application, rate 1000 g/ha, evaluated after 13 days
// return a plain number; no unit text

compound	endpoint result
O=C1CCCN1c1ccc(-c2cncc(F)c2)nc1C(F)(F)F [Compound C55]	4
CCCC(=O)Nc1ccc(-c2cncc(F)c2)nc1C(F)(F)F [Compound C22]	5
O=C(CC1CCCCC1)Nc1ccc(-c2cncc(F)c2)nc1C(F)(F)F [Compound C19]	5
Cc1ccc(C(=O)Nc2ccc(-c3cncc(F)c3)nc2C(F)(F)F)s1 [Compound C52]	5
O=CNc1ccc(-c2cncc(F)c2)nc1C(F)(F)F [Compound C112]	4

Form: compound = CCC(=O)N(COCC(C)(C)C)c1ccc(-c2cncc(F)c2)nc1C(F)(F)F [Compound C99] ; Pre-emergence herbicidal activity, SETFA (damage score 0-5) = 5

Form: compound = CC(=O)N(C(C)=O)c1ccc(-c2cncnc2)nc1C(F)(F)F [Compound C6] ; Pre-emergence herbicidal activity, SETFA (damage score 0-5) = 4

Form: compound = CC(C)C(=O)N(CC1CC1)c1ccc(-c2cncc(F)c2)nc1C(F)(F)F [Compound C87] ; Pre-emergence herbicidal activity, SETFA (damage score 0-5) = 5

Form: compound = CCC(=O)N(CC=C(C)C)c1ccc(-c2cncc(F)c2)nc1C(F)(F)F [Compound C73] ; Pre-emergence herbicidal activity, SETFA (damage score 0-5) = 5

----------
Test system: Alopecurus myosuroides (ALOMY)
assay explanation: B1 Pre-emergence herbicidal activity
Type: in vivo
Set-up: key: 5=total damage to plant; 0=no damage to plant
condition set: pre-emergence application, rate 1000 g/ha, evaluated after 13 days
Description: Seeds of a variety of test species were sown in standard soil in pots: Triticum aestivium (TRZAW), Avena fatua (AVEFA), Alopecurus myosuroides (ALOMY), Echinochloa crus-galli (ECHCG), Lolium perenne (LOLPE), Zea Mays (ZEAMX), Abutilon theophrasti (ABUTH), Amaranthus retroflexus (AMARE) and Setaria fabenr (SETFA). […] After 13 days, the test was evaluated (5=total damage to plant; 0=no damage to plant).
parameter: Pre-emergence herbicidal activity, ALOMY (damage score 0-5)
// return a plain number; no unit text

Solved cases (4 shown):
CC(C)C(=O)N(c1ccc(-c2cncc(F)c2)nc1C(F)(F)F)C(C)C 0
COCC(=O)Nc1ccc(-c2cncc(F)c2)nc1C#N 0
CCC(=O)Nc1ccc(-c2cncnc2)nc1C#N 0
C#CCN(C(=O)CC)c1ccc(-c2cncc(F)c2)nc1C(F)(F)F 0

Here's the next entry for you.
Form: compound = CCCCC(=O)Nc1ccc(-c2cncc(F)c2)nc1C(F)(F)F ; Pre-emergence herbicidal activity, ALOMY (damage score 0-5) = 1

----------
Test system: Alopecurus myosuroides (ALOMY)
assay explanation: B1 Pre-emergence herbicidal activity
Type: in vivo
Parameters: key: 5=total damage to plant; 0=no damage to plant
condition set: pre-emergence application, rate 1000 g/ha, evaluated after 13 days
Method: Seeds of a variety of test species were sown in standard soil in pots: Triticum aestivium (TRZAW), Avena fatua (AVEFA), Alopecurus myosuroides (ALOMY), Echinochloa crus-galli (ECHCG), Lolium perenne (LOLPE), Zea Mays (ZEAMX), Abutilon theophrasti (ABUTH), Amaranthus retroflexus (AMARE) and Setaria fabenr (SETFA). […] After 13 days, the test was evaluated (5=total damage to plant; 0=no damage to plant).
Reported values of Pre-emergence herbicidal activity, ALOMY (damage score 0-5) for individual entries
// return a plain number; no unit text

Solved cases (3 shown):
compound	target desc	endpoint result
O=C(CC1CCCCC1)Nc1ccc(-c2cncc(F)c2)nc1C(F)(F)F [Compound C19]	Alopecurus myosuroides (ALOMY)	0
CCC(=O)N(Cc1ccncc1)c1ccc(-c2cncc(F)c2)nc1C(F)(F)F [Compound C70]	Alopecurus myosuroides (ALOMY)	0
O=C(c1ccccc1)N(Cc1cnc(Cl)s1)c1ccc(-c2cncc(F)c2)nc1C(F)(F)F [Compound C78]	Alopecurus myosuroides (ALOMY)	0

Form: compound = O=C(CCC1CCCC1)Nc1ccc(-c2cncc(F)c2)nc1C(F)(F)F [Compound C53] ; Pre-emergence herbicidal activity, ALOMY (damage score 0-5) = 1

----------
System: Alopecurus myosuroides (ALOMY)
assay explanation: B1 Pre-emergence herbicidal activity
Format: in vivo
Set-up: key: 5=total damage to plant; 0=no damage to plant
condition set: pre-emergence application, rate 1000 g/ha, evaluated after 13 days
Reported values of Pre-emergence herbicidal activity, ALOMY (damage score 0-5) for individual entries
// return a plain number; no unit text

Solved cases (4 shown):
CC(C)C(=O)N(CC(=O)N(C)C)c1ccc(-c2cncc(F)c2)nc1C(F)(F)F 0
CC(=O)N(C(C)=O)c1ccc(-c2cncnc2)nc1C(F)(F)F 1
CC(C)=CC(=O)N(C(=O)C=C(C)C)c1ccc(-c2cncc(F)c2)nc1C(F)(F)F 0
O=C(Nc1ccc(-c2cncc(F)c2)nc1C(F)(F)F)c1cccs1 1

Here's the next entry for you.
Form: compound = CC(C)C(=O)N(CC1CC1)c1ccc(-c2cncc(F)c2)nc1C(F)(F)F ; Pre-emergence herbicidal activity, ALOMY (damage score 0-5) = 0

----------
Reported values of Pre-emergence herbicidal activity, SETFA (damage score 0-5) for individual entries
System: Setaria fabenr (SETFA)
assay explanation: B1 Pre-emergence herbicidal activity
Assay type: in vivo
Parameters: key: 5=total damage to plant; 0=no damage to plant
condition set: pre-emergence application, rate 1000 g/ha, evaluated after 13 days
// return a plain number; no unit text

Solved cases (2 shown):
CCCCC(=O)Nc1ccc(-c2cncc(F)c2)nc1C(F)(F)F 5
CCC(=O)Nc1ccc(-c2cncc(F)c2)nc1C#N 5

Form: compound = O=C(Nc1ccc(-c2cncc(F)c2)nc1C(F)(F)F)c1cc(F)c(F)cc1F ; Pre-emergence herbicidal activity, SETFA (damage score 0-5) = 2

Form: compound = Cc1nc(-c2cncc(F)c2)ccc1N(C(=O)C(C)C)C(=O)C(C)C ; Pre-emergence herbicidal activity, SETFA (damage score 0-5) = 5

Form: compound = O=C(CCl)Nc1ccc(-c2cncc(F)c2)nc1C(F)(F)F ; Pre-emergence herbicidal activity, SETFA (damage score 0-5) = 4

----------
Test system: Setaria fabenr (SETFA)
assay explanation: B1 Pre-emergence herbicidal activity
Type: in vivo
Design: key: 5=total damage to plant; 0=no damage to plant
condition set: pre-emergence application, rate 1000 g/ha, evaluated after 13 days
Protocol: Seeds of a variety of test species were sown in standard soil in pots: Triticum aestivium (TRZAW), Avena fatua (AVEFA), Alopecurus myosuroides (ALOMY), Echinochloa crus-galli (ECHCG), Lolium perenne (LOLPE), Zea Mays (ZEAMX), Abutilon theophrasti (ABUTH), Amaranthus retroflexus (AMARE) and Setaria fabenr (SETFA). […] After 13 days, the test was evaluated (5=total damage to plant; 0=no damage to plant).
Reported values of Pre-emergence herbicidal activity, SETFA (damage score 0-5) for individual entries
// return a plain number; no unit text

C#CCN(C(=O)CC)c1ccc(-c2cncc(F)c2)nc1C(F)(F)F 5
CC(C)(C)COCN(C(=O)c1ccccc1)c1ccc(-c2cncc(F)c2)nc1C(F)(F)F 5
COCC(=O)N(Cc1ccc(Cl)cc1)c1ccc(-c2cncc(F)c2)nc1C(F)(F)F 1
Cc1nc(-c2cncnc2)ccc1NC(=O)C(C)C 5

Form: compound = C=CCN(C(=O)C(C)C)c1ccc(-c2cncc(F)c2)nc1C(F)(F)F ; Pre-emergence herbicidal activity, SETFA (damage score 0-5) = 5

Form: compound = CCC(=O)N(c1ccc(-c2cncc(F)c2)nc1C(F)(F)F)C(C)C ; Pre-emergence herbicidal activity, SETFA (damage score 0-5) = 5

Form: compound = CCC(=O)N(CC(C)C)c1ccc(-c2cncc(F)c2)nc1C(F)(F)F ; Pre-emergence herbicidal activity, SETFA (damage score 0-5) = 3

Form: compound = CCC(=O)N(CCOC)c1ccc(-c2cncc(F)c2)nc1C(F)(F)F ; Pre-emergence herbicidal activity, SETFA (damage score 0-5) = 5

Form: compound = CCC(=O)N(Cc1ccncc1)c1ccc(-c2cncc(F)c2)nc1C(F)(F)F ; Pre-emergence herbicidal activity, SETFA (damage score 0-5) = 2

Form: compound = COCC(=O)Nc1ccc(-c2cncc(F)c2)nc1C#N ; Pre-emergence herbicidal activity, SETFA (damage score 0-5) = 5

Form: compound = C#CCN(C(=O)C(C)C)c1ccc(-c2cncc(F)c2)nc1C(F)(F)F ; Pre-emergence herbicidal activity, SETFA (damage score 0-5) = 5

Form: compound = CC(C)C(=O)N(c1ccc(-c2cncc(F)c2)nc1C(F)(F)F)C(C)C ; Pre-emergence herbicidal activity, SETFA (damage score 0-5) = 2

Form: compound = COCC(=O)N(CC(=O)N(C)C)c1ccc(-c2cncc(F)c2)nc1C(F)(F)F ; Pre-emergence herbicidal activity, SETFA (damage score 0-5) = 5

Form: compound = CCC(=O)N(CC1CC1)c1ccc(-c2cncc(F)c2)nc1C(F)(F)F ; Pre-emergence herbicidal activity, SETFA (damage score 0-5) = 5

Form: compound = C/C=C/C(=O)Nc1ccc(-c2cncc(F)c2)nc1C(F)(F)F ; Pre-emergence herbicidal activity, SETFA (damage score 0-5) = 5

Form: compound = O=C(Nc1ccc(-c2cncnc2)nc1C(F)(F)F)C(Cl)Cl ; Pre-emergence herbicidal activity, SETFA (damage score 0-5) = 3

Form: compound = O=C(Nc1ccc(-c2cncc(F)c2)nc1C(F)(F)F)c1cncnc1 ; Pre-emergence herbicidal activity, SETFA (damage score 0-5) = 5

Form: compound = CCC(=O)N(Cc1ccc(Cl)cc1)c1ccc(-c2cncc(F)c2)nc1C(F)(F)F ; Pre-emergence herbicidal activity, SETFA (damage score 0-5) = 1
